B1: Pistol ribozyme (parent)
chain: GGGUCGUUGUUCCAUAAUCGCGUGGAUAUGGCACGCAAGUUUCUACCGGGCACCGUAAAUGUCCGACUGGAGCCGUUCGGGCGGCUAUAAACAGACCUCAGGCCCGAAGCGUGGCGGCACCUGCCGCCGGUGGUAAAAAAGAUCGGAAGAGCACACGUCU

variants of: B1; test: aptazyme ON/OFF ratio, guanine; higher = stronger switching; co-transcriptional cleavage with and without guanine
Overview of reported aptazyme ON/OFF ratio across a group of variants:
Answer using only a numeral; do not append any unit.

* U7G U10G U11G C13G | 1.18

[Q] May I ask what aptazyme ON/OFF ratio has been recorded for U8A U11C C13G ?
[A] 1.08

[Q] Also check U7A G9U U10A U11G C12G C13A
[A] 1.16
